The values you see were collected from paper PMC9329436.

# Test system: HL60 cells
# test_method_notes: AsedaSciences SYSTEMETRIC Cell Health Screen (flow cytometry toxicity profiling)
# reported_conditions: HL60, 4 h, 5 nM–100 µM, probability 0–1, n = 2
property: NMI2: Nuclear membrane integrity 2 score
Lab note: record just the number, no unit beside it.

Sure, the documented NMI2: Nuclear membrane integrity 2 score for `C#Cc1cccc(Nc2ncnc3ccc(OC)cc23)c1` is 0.068

Reported NMI2: Nuclear membrane integrity 2 score for COc1cc2ncnc(Nc3ccc(F)c(Cl)c3)c2cc1OCCCN1CCOCC1 [Gefitinib, reference compound] was 0.94

Per the record, `C#Cc1cccc(Nc2ncnc3cc(C(F)(F)F)ccc23)c1` has NMI2: Nuclear membrane integrity 2 score of 0.93

# NMI2: Nuclear membrane integrity 2 score of CCC(C)(C)C(=O)O[C@H]1C[C@@H](C)C=C2C=C[C@H](C)[C@H](CC[C@@H]3C[C@@H](O)CC(=O)O3)[C@H]21 [Simvastatin, reference compound] = 0.10

The compound CCc1nn(CCCN2CCN(c3cccc(Cl)c3)CC2)c(=O)n1CCOc1ccccc1 [Nefazodone, reference compound] showed NMI2: Nuclear membrane integrity 2 score equal to 0.87

Query CN(CCOc1ccc(CC2SC(=O)NC2=O)cc1)c1ccccn1 (stereo not drawn) [Rosiglitazone, reference compound] yields NMI2: Nuclear membrane integrity 2 score of 0.27

// recorded NMI2: Nuclear membrane integrity 2 score for O=C1CC2(CCCC2)CC(=O)N1CCCCN1CCN(c2ncccn2)CC1 [Buspirone, reference compound] : 0.040

NMI2: Nuclear membrane integrity 2 score recorded for this compound, [H]/N=C(/N)N/C(=N/[H])NCCc1ccccc1 [Phenformin, reference compound] , is 0.080

# NMI2: Nuclear membrane integrity 2 score (compound: CN1CCN(CCCN2c3ccccc3Sc3ccc(Cl)cc32)CC1 [Prochlorperazine, reference compound] ) is 0.99

Entry `C#Cc1cccc(Nc2ncnc3cc(I)ccc23)c1` , NMI2: Nuclear membrane integrity 2 score reported as 0.94

Lookup result for `C#Cc1cccc(Nc2ncnc3cc(OC)c(OC)cc23)c1F` ; measured NMI2: Nuclear membrane integrity 2 score: 0.59

For `C#Cc1cccc(Nc2ccnc3ccc(I)cc23)c1F` the compound record lists NMI2: Nuclear membrane integrity 2 score as 0.62

Just so you know, measured NMI2: Nuclear membrane integrity 2 score for `C#Cc1cccc(Nc2ncnc3ccc(C#N)cc23)c1` came out at 0.094

Just so you know, measured NMI2: Nuclear membrane integrity 2 score for O=C(O)c1cc(/N=N/c2ccc(S(=O)(=O)Nc3ccccn3)cc2)ccc1O [Sulfasalazine, reference compound] came out at 0.63

// recorded NMI2: Nuclear membrane integrity 2 score for `C#Cc1cccc(Nc2c(C#N)cnc3ccc(I)cc23)c1` : 0.81

NMI2: Nuclear membrane integrity 2 score reported for this compound Cc1cn([C@@H]2C[C@@H](O)[C@H](CO)O2)c(=O)[nH]c1=O [Telbivudine, reference compound] : 0.050

Value of NMI2: Nuclear membrane integrity 2 score reported for the compound `C#Cc1cc(Nc2ncnc3cc(OC)c(OC)cc23)ccc1F` is 0.18

// NMI2: Nuclear membrane integrity 2 score lookup, compound = `C#Cc1cc(Nc2ncnc3cc(I)ccc23)ccc1Cl` , result: 1.00

---

# Test system: HL60 cells
# test_method_notes: AsedaSciences SYSTEMETRIC Cell Health Screen (flow cytometry toxicity profiling)
# reported_conditions: SYSTEMETRIC Cell Health Screen; assay n=2
property: Cell Health Toxcity Profile CMI (Cell membrane integrity)
Just the number, please, no unit attached.

Reported Cell Health Toxcity Profile CMI (Cell membrane integrity) ( `C#Cc1cccc(Nc2c(C#N)cnc3cc(I)ccc23)c1` ) = 1.00

Notebook: `C#Cc1cccc(Nc2c(C#N)cnc3cc(OC)ccc23)c1` , Cell Health Toxcity Profile CMI (Cell membrane integrity) read as 0.90

Value of measured Cell Health Toxcity Profile CMI (Cell membrane integrity) for the entry `C#Cc1cccc(Nc2c(C#N)cnc3cc(OC)c(OC)cc23)c1` : 0.77

Record `C#Cc1cccc(Nc2c(C#N)cnc3ccc(Cl)cc23)c1` , field Cell Health Toxcity Profile CMI (Cell membrane integrity): 1.00

What the record says about `C#Cc1cccc(Nc2c(C#N)cnc3ccc(S(C)(=O)=O)cc23)c1` : Cell Health Toxcity Profile CMI (Cell membrane integrity) is 0.037

---

# Tested on: HL60 cells
# test_method_notes: AsedaSciences SYSTEMETRIC Cell Health Screen (flow cytometry toxicity profiling)
# reported_conditions: HL60, 4 h, 5 nM–100 µM, probability 0–1, n = 2
Could you please report measured NMI2: Nuclear membrane integrity 2 score for the items listed next?
Answer field: number only, no words.

With HL60 cells as the test system, `C#Cc1cccc(Nc2ncnc3cc4c(cc23)OCO4)c1` showed NMI2: Nuclear membrane integrity 2 score of 0.0045

Entry `C#Cc1cccc(Nc2ncnc3ccc(C)cc23)c1` , HL60 cells data, NMI2: Nuclear membrane integrity 2 score value: 0.17

Measured on HL60 cells, `C#Cc1cc(Nc2ncnc3ccc(I)cc23)ccc1Cl` has a documented NMI2: Nuclear membrane integrity 2 score of 0.33

Measured NMI2: Nuclear membrane integrity 2 score for this entry CC/C(=C(\c1ccccc1)c1ccc(OCCN(C)C)cc1)c1ccccc1 [Tamoxifen, reference compound] on HL60 cells: 0.99

// compound Cc1ccnc2c1NC(=O)c1cccnc1N2C1CC1 [Nevirapine, reference compound] , assay HL60 cells, NMI2: Nuclear membrane integrity 2 score value: 0.040

Recorded NMI2: Nuclear membrane integrity 2 score for `C#Cc1ccc(F)c(Nc2ncnc3cc(I)ccc23)c1` on HL60 cells was 1.00

With HL60 cells as the test system, CSc1ccc2c(c1)N(CCC1CCCCN1C)c1ccccc1S2 (stereo not drawn) [Thioridazine, reference compound] showed NMI2: Nuclear membrane integrity 2 score of 1.00

Item COc1ccc2cc3[n+](cc2c1OC)CCc1cc2c(cc1-3)OCO2 [Berberine, reference compound] ; assay system HL60 cells; NMI2: Nuclear membrane integrity 2 score reported as 0.97

The compound Cc1ccc(=O)n(-c2ccccc2)c1 [Pirfenidone, reference compound] , tested on HL60 cells, showed NMI2: Nuclear membrane integrity 2 score of 0.030

---

# System: HL60 cells
# test_method_notes: AsedaSciences SYSTEMETRIC Cell Health Screen (flow cytometry toxicity profiling)
# reported_conditions: HL60, 4 h, 5 nM–100 µM, probability 0–1, n = 2
# Description: To prioritize further optimization, in addition to cellular potency, we utilized the AsedaSciences® […]® Cell Health Screen. […] In a 384-well platform, HL60 cells were exposed to a 10-step, 3 × dilution series of each test compound (5 nM–100 µM) for 4 h at 37 °C with 5% CO2. […] Fluorescence and forward/side-scatter data were collected using automated FC with no gating. […]
// assign true (1) if GSH: Glutathione score falls strictly below 0.07, else false (0) (ties count as false (0))

Prompt: Record C#Cc1cccc(Nc2ncnc3cc(C#N)ccc23)c1 [Compound 17] : is its GSH: Glutathione score strictly below 0.07?
Completion: true (1)

Prompt: Determine if CC(C(=O)O)c1cccc(C(=O)c2ccccc2)c1 (centres unmarked) [Ketoprofen, reference compound] shows GSH: Glutathione score strictly lower than 0.07.
Completion: true (1)

Prompt: is_below(GSH: Glutathione score, 0.07) for C=C(C)[C@H]1Cc2c(ccc3c2O[C@@H]2COc4cc(OC)c(OC)cc4[C@@H]2C3=O)O1 [Rotenone, reference compound] ?
Completion: false (0)

Prompt: Field: below-cutoff. Rule: recorded GSH: Glutathione score strictly less than 0.07. Subject: CCc1nn(CCCN2CCN(c3cccc(Cl)c3)CC2)c(=O)n1CCOc1ccccc1 [Nefazodone, reference compound]
Completion: false (0)

Prompt: Hi there! Is GSH: Glutathione score for C#Cc1cccc(Nc2ncnc3cc(Br)ccc23)c1 [Compound 14] below 0.07, do you know?
Completion: true (1)

Prompt: Is GSH: Glutathione score of C#Cc1cccc(Nc2ncnc3ccc(C#N)cc23)c1 [Compound 18] strictly below 0.07?
Completion: true (1)

Prompt: Consider CS(=O)(=O)CCNCc1ccc(-c2ccc3ncnc(Nc4ccc(OCc5cccc(F)c5)c(Cl)c4)c3c2)o1 [Lapatinib, reference compound] . Does its GSH: Glutathione score lie strictly below 0.07?
Completion: false (0)

---

# System: HL60 cells
# test_method_notes: AsedaSciences SYSTEMETRIC Cell Health Screen (flow cytometry toxicity profiling)
# reported_conditions: HL60, 4 h, 5 nM–100 µM, probability 0–1, n = 2
# Description: To prioritize further optimization, in addition to cellular potency, we utilized the AsedaSciences® […]® Cell Health Screen. […] In a 384-well platform, HL60 cells were exposed to a 10-step, 3 × dilution series of each test compound (5 nM–100 µM) for 4 h at 37 °C with 5% CO2. […] Fluorescence and forward/side-scatter data were collected using automated FC with no gating. […]
Consider the following molecules; for each one, report its MMP: Mitochondrial membrane depolarization score.

get_value(item= `C#Cc1cc(Nc2ncnc3cc(OC)c(OC)cc23)ccc1F` , readout=MMP: Mitochondrial membrane depolarization score) returns 0.15

CC1(C)NC(=O)N(c2ccc([N+](=O)[O-])c(C(F)(F)F)c2)C1=O [Nilutamide, reference compound] has a reported MMP: Mitochondrial membrane depolarization score of 0.42

Lab book: MMP: Mitochondrial membrane depolarization score of CC(C(=O)O)c1cccc(C(=O)c2ccccc2)c1 (centres unmarked) [Ketoprofen, reference compound] noted as 0.010

So, O=C1CC2(CCCC2)CC(=O)N1CCCCN1CCN(c2ncccn2)CC1 [Buspirone, reference compound] ? Its MMP: Mitochondrial membrane depolarization score was 0.020

Record CS(=O)(=O)CCNCc1ccc(-c2ccc3ncnc(Nc4ccc(OCc5cccc(F)c5)c(Cl)c4)c3c2)o1 [Lapatinib, reference compound] . Reported MMP: Mitochondrial membrane depolarization score: 1.00

MMP: Mitochondrial membrane depolarization score recorded for this molecule, O=C(O)c1cc(/N=N/c2ccc(S(=O)(=O)Nc3ccccn3)cc2)ccc1O [Sulfasalazine, reference compound] , is 0.31

Kindly note the recorded MMP: Mitochondrial membrane depolarization score for `C#Cc1cccc(Nc2ncnc3cc4c(cc23)OCO4)c1` , which is 0.016

get_value(item= CCOC(=O)N1CCC(=C2c3ccc(Cl)cc3CCc3cccnc32)CC1 [Loratadine, reference compound] , readout=MMP: Mitochondrial membrane depolarization score) returns 0.65
